Reported values of Emax for individual entries
target: NPFF2 (Homo sapiens, UniProt Q9Y5X5); construct: expressed in transfected cells; host or cells: NIH3T3; test: Receptor Selection and Amplification Technology (R-SAT) functional assay, NPFF2; type: cell-based; settings: R-SAT, Table 1; Efficacy is relative to endogenous ligand; read-out: NPFF2 % Efficacy
Sequence (Q9Y5X5 103-522): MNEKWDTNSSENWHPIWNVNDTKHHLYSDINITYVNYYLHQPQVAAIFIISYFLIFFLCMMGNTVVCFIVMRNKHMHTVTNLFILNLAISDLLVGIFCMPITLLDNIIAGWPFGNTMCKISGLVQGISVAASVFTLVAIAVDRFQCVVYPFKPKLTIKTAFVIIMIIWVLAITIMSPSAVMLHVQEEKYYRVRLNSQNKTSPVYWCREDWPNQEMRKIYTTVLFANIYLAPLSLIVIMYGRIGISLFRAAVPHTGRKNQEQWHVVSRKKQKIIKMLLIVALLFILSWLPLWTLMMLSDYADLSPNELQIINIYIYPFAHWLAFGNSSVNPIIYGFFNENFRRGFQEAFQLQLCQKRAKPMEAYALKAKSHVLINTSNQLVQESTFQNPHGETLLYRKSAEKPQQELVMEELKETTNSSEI
Counter-ions that a name gives are not always drawn.
Your answer should be a plain number; it is taken to be in %.

// worked examples, Emax included
>>> endpoint_result("CCC(=NNC(=N)N)c1ccc(Cl)c(Cl)c1 [Compound 2056, Hydrochloride]")
73
>>> endpoint_result("COc1ccc(OC)c(C=NNC(=N)N)c1 [Compound 3005, Hydrochloride]")
59
>>> endpoint_result("COc1ccc(C=NNC(=N)N)cc1C(F)(F)F [Compound 2073, Hydrochloride]")
51
>>> endpoint_result("CCCOc1ccc(C=NNC(=N)N)cc1 [Compound 4006, Hydrochloride]")
53

Would you kindly look at the next entry?
[Q] Using the record for CC(=NNC(=N)N)c1ccc(Cl)c(Cl)c1 [Compound 3012, Hydrochloride] , report its Emax.
[A] 63

* * *

Reported values of EC50 for individual entries
molecular target: NPFF2 (Homo sapiens); construct: expressed in transfected cells; host or cells: NIH3T3; experiment: Receptor Selection and Amplification Technology (R-SAT) functional assay, NPFF2; assay type: cell-based; settings: R-SAT, Table 1; NA = No activity detectable at the highest dose tested (20 μM); read-out: NPFF2 pEC50 (converted)
Counter-ions that a name gives are not always drawn.
Your answer should be a plain number; it is taken to be in µM.

// worked examples, EC50 included
>>> endpoint_result("Cc1ccc(C=NNC(=N)N)c(C)c1 [Compound 2077, Hydrochloride]")
3.16
>>> endpoint_result("CCOc1ccc(C=NNC(=N)N)cc1OCC")
7.94
>>> endpoint_result("CC(=NNC(=N)N)c1cc(C(F)(F)F)cc(C(F)(F)F)c1 [Compound 3028, Hydrochloride]")
1.26
>>> endpoint_result("N#CCCCCOc1ccc(C=NNC(=N)N)cc1Cl [Compound 2044, Hydrochloride]")
3.98

[Q] Using the record for CN(CCC#N)c1ccc(C=NNC(=N)N)cc1 [Compound 3040, Hydrochloride] , report its EC50.
[A] 2

* * *

Reported values of Emax for individual entries
target: NPFF2 (Homo sapiens); construct: expressed in transfected cells; host or cells: NIH3T3; experiment: Receptor Selection and Amplification Technology (R-SAT) functional assay, NPFF2; format: cell-based; details: R-SAT, Table 1; Efficacy is relative to endogenous ligand; read-out: NPFF2 % Efficacy
Structures can show the parent of a compound that is named as a salt.
Your answer should be a plain number; it is taken to be in %.

// worked examples, Emax included
>>> endpoint_result("N=C(N)NN=Cc1c2ccccc2cc2ccccc12 [Compound 2006, Hydrochloride]")
51
>>> endpoint_result("COc1ccc(C=NNC(=N)N)c(C)c1C [Compound 2034, Hydrochloride]")
105
>>> endpoint_result("COc1ccc(C=NNC(=N)N)cc1F [Compound 2009, Hydrochloride]")
54
>>> endpoint_result("CCOc1ccc(C=NNC(=N)N)cc1 [Compound 4005, Hydrochloride]")
49
>>> endpoint_result("COc1ccc(C(C)=NNC(=N)N)c(O)c1 (mixture of isomers) [Compound 3030, Hydrochloride]")
22
>>> endpoint_result("CCN(CC)c1ccc(C=NNC(=N)N)c(OC)c1 [Compound 3043, Hydrochloride]")
92

[Q] Using the record for CCCCCc1ccc(C=NNC(=N)N)cc1 [Compound 3022, Hydrochloride] , report its Emax.
[A] 55

[Q] Param item: COc1cccc(C=NNC(=N)N)c1OC [Compound 4004, Hydrochloride]
[A] 49

[Q] Param item: Cc1cc(C=NNC(=N)N)cc(C)c1O [Compound 2033, Hydrochloride]
[A] 33

[Q] Param item: N=C(N)NN=Cc1ccc(F)c(Br)c1 [Compound 2010, Hydrochloride]
[A] 53

[Q] Param item: N=C(N)NN=Cc1cc(F)ccc1[N+](=O)[O-] [Compound 2004, Hydrochloride]
[A] 38

* * *

biological target: UniProt Q9GZQ6; experiment: Receptor Selection and Amplification Technology (R-SAT) functional assay, NPFF1; assay type: cell-based; parameters: expressed in transfected cells; host or cells: NIH3T3; conditions: R-SAT, Table 1; Efficacy is relative to endogenous ligand; read-out: NPFF1 % Efficacy
Counter-ions that a name gives are not always drawn.
Reported values of Emax for individual entries
Your answer should be a plain number; it is taken to be in %.

>>> endpoint_result("COc1ccc(OC)c(C=NNC(=N)N)c1 [Compound 3005, Hydrochloride]")
3
>>> endpoint_result("CN(CCO)c1ccc(C=NNC(=N)N)cc1 [Compound 3041, Hydrochloride]")
30
>>> endpoint_result("CC(=NNC(=N)N)c1ccc(Cl)c(Cl)c1 [Compound 3012, Hydrochloride]")
0
>>> endpoint_result("COc1ccc(C(F)(F)F)cc1C=NNC(=N)N [Compound 2074, Hydrochloride]")
19
>>> endpoint_result("CC(=NNC(=N)N)c1ccc(C)c(C)c1 [Compound 3021, Hydrochloride]")
32

Would you kindly look at the next entry?
[Q] Using the record for N=C(N)NN=Cc1ccc(C(F)(F)F)cc1F [Compound 2060, Hydrochloride] , report its Emax.
[A] 26

* * *

target: NPFF2 (Homo sapiens); construct: expressed in transfected cells; host or cells: NIH3T3; assay: Receptor Selection and Amplification Technology (R-SAT) functional assay, NPFF2; type: cell-based; conditions: R-SAT, Table 1; Efficacy is relative to endogenous ligand; read-out: NPFF2 % Efficacy
Where a name gives a salt, the structure may show the parent alone.
// label = Condition met if Emax is not less than 70%, otherwise Condition not met

Below, 2 compounds whose answers are already recorded.
>>> assigned_class("CCc1ccc(C=NNC(=N)N)cc1 [Compound 3025, Hydrochloride]")
"Condition met"
>>> assigned_class("NC(N)=N/N=C/c1ccc(Cl)c(Cl)c1 [Compound 1045, Hydrochloride]")
"Condition not met"

[Q] hey, is Emax for this one >= 70%? CC(=NNC(=N)N)c1ccc(Br)cc1 [Compound 3016, Hydrochloride]
[A] Condition met

[Q] Param item: N=C(N)NN=Cc1ccc(C(F)(F)F)cc1F [Compound 2060, Hydrochloride]
[A] Condition not met

[Q] Param item: N=C(N)NN=Cc1ccc2ccccc2c1 [Compound 2075, Hydrochloride]
[A] Condition not met

[Q] Param item: CCCCCCc1ccc(C(C)=NNC(=N)N)cc1 [Compound 3023, Hydrochloride]
[A] Condition not met

[Q] Param item: N=C(N)N/N=C/c1ccc(Br)cc1
[A] Condition met

[Q] Param item: N#CCCCCOc1ccc(C=NNC(=N)N)cc1Cl [Compound 2044, Hydrochloride]
[A] Condition not met

* * *

biological target: NPFF2 (Homo sapiens); construct: expressed in transfected cells; host or cells: NIH3T3; experiment: Receptor Selection and Amplification Technology (R-SAT) functional assay, NPFF2; assay type: cell-based; settings: R-SAT, Table 1; NA = No activity detectable at the highest dose tested (20 μM); read-out: NPFF2 pEC50 (converted)
Where a name gives a salt, the structure may show the parent alone.
Reported values of EC50 for individual entries
Your answer should be a plain number; it is taken to be in µM.

// worked examples, EC50 included
>>> endpoint_result("N=C(N)NN=Cc1ccc(F)c2ccccc12 [Compound 2072, Hydrochloride]")
2
>>> endpoint_result("COc1ccc(C=NNC(=N)N)c(OC)c1 [Compound 4003, Hydrochloride]")
6.31
>>> endpoint_result("COc1cccc(C=NNC(=N)N)c1OCc1ccccc1 [Compound 3006, Hydrochloride]")
0.794
>>> endpoint_result("[H]/N=C(\\N)NN=Cc1ccc(Cl)cc1 [Compound 4008, Hydrochloride]")
6.31
>>> endpoint_result("Cl.N=C(N)N/N=C/c1ccc(Br)c(Br)c1 [Compound 3093, Hydrochloride]")
1.58

[Q] Using the record for COc1ccc(C(F)(F)F)cc1C=NNC(=N)N [Compound 2074, Hydrochloride] , report its EC50.
[A] 2.51

[Q] Param item: C=CCOc1ccc(C=NNC(=N)N)cc1Cl [Compound 2042, Hydrochloride]
[A] 0.794

[Q] Param item: COc1ccc(OC)c(C=NNC(=N)N)c1 [Compound 3005, Hydrochloride]
[A] 7.94

[Q] Param item: CC(=NNC(=N)N)c1cccc(Br)c1 [Compound 2003, Hydrochloride]
[A] 1.58

* * *

target: NPFF1 (Homo sapiens, UniProt Q9GZQ6); test: Receptor Selection and Amplification Technology (R-SAT) functional assay, NPFF1; type: cell-based; parameters: expressed in transfected cells; host or cells: NIH3T3; conditions: R-SAT, Table 1; Efficacy is relative to endogenous ligand; read-out: NPFF1 % Efficacy
Sequence (Q9GZQ6 whole entry, species assumed): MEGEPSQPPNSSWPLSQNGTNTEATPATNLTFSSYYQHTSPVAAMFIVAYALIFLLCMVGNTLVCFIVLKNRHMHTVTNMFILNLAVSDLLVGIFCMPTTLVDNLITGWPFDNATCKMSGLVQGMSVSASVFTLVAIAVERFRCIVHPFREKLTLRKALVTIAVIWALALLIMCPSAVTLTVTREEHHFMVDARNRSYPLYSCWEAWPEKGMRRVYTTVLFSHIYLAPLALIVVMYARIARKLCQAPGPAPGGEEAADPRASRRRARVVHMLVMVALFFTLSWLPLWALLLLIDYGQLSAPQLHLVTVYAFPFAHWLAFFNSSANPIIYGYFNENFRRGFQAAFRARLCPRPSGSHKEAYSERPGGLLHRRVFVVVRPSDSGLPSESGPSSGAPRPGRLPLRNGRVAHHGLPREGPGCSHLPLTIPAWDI
Where a name gives a salt, the structure may show the parent alone.
Reported values of Emax for individual entries
Your answer should be a plain number; it is taken to be in %.

// worked examples, Emax included
>>> endpoint_result("Cc1cc(C=NNC(=N)N)cc(C)c1O [Compound 2033, Hydrochloride]")
7
>>> endpoint_result("CC(=NNC(=N)N)c1ccc(Br)cc1 [Compound 3016, Hydrochloride]")
16
>>> endpoint_result("COc1cccc(C=NNC(=N)N)c1OC [Compound 4004, Hydrochloride]")
15
>>> endpoint_result("N=C(N)NN=Cc1cc2c(cc1Br)OCO2 [Compound 3015, Hydrochloride]")
26

Would you kindly look at the next entry?
[Q] Using the record for CC(=NNC(=N)N)c1ccc2c(c1)OCO2 [Compound 3032, Hydrochloride] , report its Emax.
[A] 36
